experimental-details: Inhibition of Plasmodium falciparum falcipain-2 after 12 hrs by fluorescence spectroscopy-based on-bead assay
Parameters: concentration or dose not given beside the values
applied-conditions: concentration not given here
Peptide text beside a SMILES is read from it.
Listed next: entries and their corresponding inhibition.
property-name: inhibition (%)

[
  {
    "molecule": "CC(C)C[C@H](NC(=O)[C@H](C)NC(=O)/C=C/C(=O)NCC(=O)NCC(=O)N[C@@H](Cc1ccccc1)C(=O)O)C(=O)N[C@@H](CC(C)C)C(=O)N[C@H](C(N)=O)C(C)C (HELM PEPTIDE1{[O=C(/C=C/C(=O)[*:2])NCC(=O)NCC(=O)N[C@@H](Cc1ccccc1)C(=O)O].A.L.L.V.[am]}$$$$V2.0)",
    "property-name": "inhibition",
    "data-value": 55
  },
  {
    "molecule": "CC[C@H](C)[C@H](NC(=O)[C@H](C)NC(=O)/C=C/C(=O)N[C@@H](C)C(=O)NCC(=O)N[C@@H](Cc1ccccc1)C(=O)O)C(=O)N[C@@H](C)C(=O)N[C@H](C(N)=O)C(C)C (HELM PEPTIDE1{[C[C@H](NC(=O)/C=C/C(=O)[*:2])C(=O)NCC(=O)N[C@@H](Cc1ccccc1)C(=O)O].A.I.A.V.[am]}$$$$V2.0)",
    "property-name": "inhibition",
    "data-value": 37
  },
  {
    "molecule": "CC(=O)NC[C@H](NC(=O)/C=C/C(=O)N[C@@H](C)C(=O)NCC(=O)N[C@@H](Cc1ccccc1)C(=O)O)C(=O)N[C@H](C(=O)N[C@@H](C)C(=O)N[C@H](C(N)=O)C(C)C)c1ccccc1 (HELM PEPTIDE1{[C[C@H](NC(=O)/C=C/C(=O)[*:2])C(=O)NCC(=O)N[C@@H](Cc1ccccc1)C(=O)O].[O=C([C@H](CN[*:3])N[*:1])[*:2]].[Phg].A.V.[am]}|PEPTIDE2{[ac]}$PEPTIDE1,PEPTIDE2,2:R3-1:R2$$$V2.0)",
    "property-name": "inhibition",
    "data-value": 35
  }
]

---

tgt: Rhodesain (Trypanosoma brucei rhodesiense)
experimental-details: Inhibition of Trypanosoma brucei rhodesiense rhodesain after 12 hrs by fluorescence spectroscopy-based on-bead assay
Parameters: concentration or dose not given beside the values
applied-conditions: concentration not given here
Peptide text beside a SMILES is read from it.
Decide by inhibition: equal to or exceeding 50% means rule met, less means rule not met.

[
  {
    "compound": "CC(C)[C@H](NC(=O)[C@H](C)NC(=O)[C@@H](NC(=O)[C@H](CCC(N)=O)NC(=O)/C=C/C(=O)N[C@@H](C)C(=O)NCC(=O)N[C@@H](Cc1ccccc1)C(=O)O)C1CCCCC1)C(N)=O (HELM PEPTIDE1{[C[C@H](NC(=O)/C=C/C(=O)[*:2])C(=O)NCC(=O)N[C@@H](Cc1ccccc1)C(=O)O].Q.[O=C([C@@H](N[*:1])C1CCCCC1)[*:2]].A.V.[am]}$$$$V2.0)",
    "tgt": "Rhodesain (Trypanosoma brucei rhodesiense)",
    "cat": "rule not met"
  },
  {
    "compound": "CC(C)C[C@H](NC(=O)[C@H](Cc1ccccc1)NC(=O)[C@H](Cc1ccccc1)NC(=O)/C=C/C(=O)N[C@@H](C)C(=O)NCC(=O)N[C@@H](Cc1ccccc1)C(=O)O)C(=O)N[C@H](C(N)=O)C(C)C (HELM PEPTIDE1{[C[C@H](NC(=O)/C=C/C(=O)[*:2])C(=O)NCC(=O)N[C@@H](Cc1ccccc1)C(=O)O].F.F.L.V.[am]}$$$$V2.0)",
    "tgt": "Rhodesain (Trypanosoma brucei rhodesiense)",
    "cat": "rule met"
  },
  {
    "compound": "CC(=O)NC[C@H](NC(=O)/C=C/C(=O)NCC(=O)NCC(=O)N[C@@H](Cc1ccccc1)C(=O)O)C(=O)N[C@@H](Cc1ccccc1)C(=O)N[C@@H](C)C(=O)N[C@H](C(N)=O)C(C)C (HELM PEPTIDE1{[O=C(/C=C/C(=O)[*:2])NCC(=O)NCC(=O)N[C@@H](Cc1ccccc1)C(=O)O].[O=C([C@H](CN[*:3])N[*:1])[*:2]].F.A.V.[am]}|PEPTIDE2{[ac]}$PEPTIDE1,PEPTIDE2,2:R3-1:R2$$$V2.0)",
    "tgt": "Rhodesain (Trypanosoma brucei rhodesiense)",
    "cat": "rule not met"
  },
  {
    "compound": "CC(C)C[C@H](NC(=O)[C@H](Cc1ccccc1)NC(=O)/C=C/C(=O)NCC(=O)NCC(=O)N[C@@H](Cc1ccccc1)C(=O)O)C(=O)N[C@@H](CC(C)C)C(=O)N[C@H](C(N)=O)C(C)C (HELM PEPTIDE1{[O=C(/C=C/C(=O)[*:2])NCC(=O)NCC(=O)N[C@@H](Cc1ccccc1)C(=O)O].F.L.L.V.[am]}$$$$V2.0)",
    "tgt": "Rhodesain (Trypanosoma brucei rhodesiense)",
    "cat": "rule met"
  },
  {
    "compound": "CC(C)C[C@H](NC(=O)[C@@H](NC(=O)[C@H](Cc1ccccc1)NC(=O)/C=C/C(=O)NCC(=O)NCC(=O)N[C@@H](Cc1ccccc1)C(=O)O)C1CCCCC1)C(=O)N[C@H](C(N)=O)C(C)C (HELM PEPTIDE1{[O=C(/C=C/C(=O)[*:2])NCC(=O)NCC(=O)N[C@@H](Cc1ccccc1)C(=O)O].F.[O=C([C@@H](N[*:1])C1CCCCC1)[*:2]].L.V.[am]}$$$$V2.0)",
    "tgt": "Rhodesain (Trypanosoma brucei rhodesiense)",
    "cat": "rule met"
  },
  {
    "compound": "CC(C)C[C@H](NC(=O)[C@H](C)NC(=O)/C=C/C(=O)N[C@@H](C)C(=O)NCC(=O)N[C@@H](Cc1ccccc1)C(=O)O)C(=O)N[C@@H](CC(C)C)C(=O)N[C@H](C(N)=O)C(C)C (HELM PEPTIDE1{[C[C@H](NC(=O)/C=C/C(=O)[*:2])C(=O)NCC(=O)N[C@@H](Cc1ccccc1)C(=O)O].A.L.L.V.[am]}$$$$V2.0)",
    "tgt": "Rhodesain (Trypanosoma brucei rhodesiense)",
    "cat": "rule met"
  }
]

---

tgt: Rhodesain (Trypanosoma brucei rhodesiense) (UniProt Q95PM0)
Sequence (Q95PM0 1-450): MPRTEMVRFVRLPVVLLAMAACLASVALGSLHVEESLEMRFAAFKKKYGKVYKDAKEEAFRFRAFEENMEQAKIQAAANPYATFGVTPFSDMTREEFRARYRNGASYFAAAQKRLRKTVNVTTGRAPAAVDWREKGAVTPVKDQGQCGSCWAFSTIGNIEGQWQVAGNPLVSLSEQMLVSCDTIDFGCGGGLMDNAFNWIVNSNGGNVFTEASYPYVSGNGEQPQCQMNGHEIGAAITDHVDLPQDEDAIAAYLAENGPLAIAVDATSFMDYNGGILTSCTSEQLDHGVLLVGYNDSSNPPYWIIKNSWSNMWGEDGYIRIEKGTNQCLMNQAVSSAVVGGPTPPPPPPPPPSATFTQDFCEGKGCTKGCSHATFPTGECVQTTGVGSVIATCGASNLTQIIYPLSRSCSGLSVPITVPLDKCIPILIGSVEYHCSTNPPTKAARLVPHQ
experimental-details: Inhibition of Trypanosoma brucei rhodesiense rhodesain after 12 hrs by fluorescence spectroscopy-based on-bead assay
Design: concentration or dose not given beside the values
applied-conditions: concentration not given here
Square brackets hold non-standard residues; d marks the D form. Peptide text beside a SMILES is read from it. * marks the point of attachment. Fumaroyl(AlaGlyPheOH) = C[C@H](NC(=O)/C=C/C(=O)*)C(=O)NCC(=O)N[C@@H](Cc1ccccc1)C(=O)O; Chg = N[C@H](C(=O)O)C1CCCCC1; Dap = NC[C@H](N)C(=O)O
property-name: inhibition (%)

[
  {
    "compound": "CC(=O)NC[C@H](NC(=O)/C=C/C(=O)N[C@@H](C)C(=O)NCC(=O)N[C@@H](Cc1ccccc1)C(=O)O)C(=O)N[C@H](C(=O)N[C@@H](C)C(=O)N[C@H](C(N)=O)C(C)C)C1CCCCC1 ({Fumaroyl(AlaGlyPheOH)}-[Dap](Ac)[Chg]AV-NH2)",
    "data-value": 29
  },
  {
    "compound": "CC(C)[C@H](NC(=O)[C@@H](NC(=O)[C@H](Cc1ccccc1)NC(=O)[C@H](C)NC(=O)/C=C/C(=O)N[C@@H](C)C(=O)NCC(=O)N[C@@H](Cc1ccccc1)C(=O)O)C(C)C)C(N)=O (HELM PEPTIDE1{[C[C@H](NC(=O)/C=C/C(=O)[*:2])C(=O)NCC(=O)N[C@@H](Cc1ccccc1)C(=O)O].A.F.V.V.[am]}$$$$V2.0)",
    "data-value": 55
  }
]

---

Listed next: entries and their corresponding inhibition.
Test system: Plasmodium falciparum
experimental-details: Inhibition of Plasmodium falciparum recombinant falcipain-2 expressed in Escherichia coli at 100 uM after 20 min by spectrofluorometry
Peptide text beside a SMILES is read from it.

[
  {
    "compound": "CC(C)C[C@H](NC(=O)[C@H](Cc1ccccc1)NC(=O)[C@H](CC(N)=O)NC(=O)/C=C/C(=O)NCC(=O)NCC(=O)N[C@@H](Cc1ccccc1)C(=O)O)C(=O)N[C@H](C(N)=O)C(C)C (HELM PEPTIDE1{[O=C(/C=C/C(=O)[*:2])NCC(=O)NCC(=O)N[C@@H](Cc1ccccc1)C(=O)O].N.F.L.V.[am]}$$$$V2.0)",
    "inhibition, %": 49
  },
  {
    "compound": "CC(C)[C@H](NC(=O)[C@H](C)NC(=O)[C@@H](NC(=O)[C@H](CC(N)=O)NC(=O)/C=C/C(=O)NCC(=O)NCC(=O)N[C@@H](Cc1ccccc1)C(=O)O)C1CCCCC1)C(N)=O (HELM PEPTIDE1{[O=C(/C=C/C(=O)[*:2])NCC(=O)NCC(=O)N[C@@H](Cc1ccccc1)C(=O)O].N.[O=C([C@@H](N[*:1])C1CCCCC1)[*:2]].A.V.[am]}$$$$V2.0)",
    "inhibition, %": 79
  },
  {
    "compound": "CC(=O)NC[C@H](NC(=O)/C=C/C(=O)NCC(=O)NCC(=O)N[C@@H](Cc1ccccc1)C(=O)O)C(=O)N[C@@H](CC(C)C)C(=O)N[C@@H](C)C(=O)N[C@H](C(N)=O)C(C)C (HELM PEPTIDE1{[O=C(/C=C/C(=O)[*:2])NCC(=O)NCC(=O)N[C@@H](Cc1ccccc1)C(=O)O].[O=C([C@H](CN[*:3])N[*:1])[*:2]].L.A.V.[am]}|PEPTIDE2{[ac]}$PEPTIDE1,PEPTIDE2,2:R3-1:R2$$$V2.0)",
    "inhibition, %": 18
  },
  {
    "compound": "CC(C)C[C@H](NC(=O)[C@H](Cc1ccccc1)NC(=O)/C=C/C(=O)NCC(=O)NCC(=O)N[C@@H](Cc1ccccc1)C(=O)O)C(=O)N[C@@H](CC(C)C)C(=O)N[C@H](C(N)=O)C(C)C (HELM PEPTIDE1{[O=C(/C=C/C(=O)[*:2])NCC(=O)NCC(=O)N[C@@H](Cc1ccccc1)C(=O)O].F.L.L.V.[am]}$$$$V2.0)",
    "inhibition, %": 100
  },
  {
    "compound": "CC(C)C[C@H](NC(=O)[C@H](CC(N)=O)NC(=O)/C=C/C(=O)NCC(=O)NCC(=O)N[C@@H](Cc1ccccc1)C(=O)O)C(=O)N[C@@H](CC(C)C)C(=O)N[C@H](C(N)=O)C(C)C (HELM PEPTIDE1{[O=C(/C=C/C(=O)[*:2])NCC(=O)NCC(=O)N[C@@H](Cc1ccccc1)C(=O)O].N.L.L.V.[am]}$$$$V2.0)",
    "inhibition, %": 92
  }
]
